Provenance of the data: PubChem BioAssay (NCI)

Tested on: LXFL 529 NSCLC
Assay: NCI tumour cell line growth inhibition, 48 h
measurement.type: TGI

Input line: Value wanted: TGI (LXFL 529 NSCLC) of entry CN1C2(c3ccccc3)c3c(-c4ccccc4)sc(-c4ccccc4)c3C1(c1ccccc1)C1C(=O)N(c3ccccc3)C(=O)C12 (stereo not given)
Output line: > 100 µM

Input line: What reported TGI corresponds to `CC(=O)O/N=C/c1ncccc1OC(C)=O` on LXFL 529 NSCLC?
Output line: > 100 µM

Input line: TGI of COc1ccc2oc3c4c2c1CCC4CCC3=O (stereo not given) on LXFL 529 NSCLC?
Output line: > 100 µM

Input line: API: value(readout= TGI, system= LXFL 529 NSCLC, query= COC(=O)C(CCCC1(c2ccccc2)OCCO1)C(C)=O (stereo not given) )
Output line: > 100 µM

---

Test system: HT29 colon
Experiment: NCI tumour cell line growth inhibition, 48 h; in the data active = GI50 below about 0.43 µM; inactive = the rest
Your reply should match one of these outcome classes. active, inactive

Here's what some known entries look like.
compound | target | class
CCOC(=O)c1sc2nc3sc(N=Nc4ccc(Cl)cc4)c(O)n3c(=S)c2c1C | HT29 colon | inactive
CCCCCCCCCCCCCCCCCC1=NCCN1CS(=O)(=O)O | HT29 colon | inactive

Input line: Dear all, I need the recorded test outcome for `C=C(C)[C@@H]1CC[C@]2(C)[C@H](C(=O)C=C3[C@@H]4C[C@](C)(C(=O)N5CCN(C)CC5)CC[C@]4(C)CC[C@]32C)[C@@]1(C)CCC#N` , thank you.
Output line: inactive

Input line: Status in this test for `CCC[CH2][Sn]([CH2]CCC)([O]C(=O)c1cc(F)cc(F)c1)[O]C(=O)c1cc(F)cc(F)c1` ?
Output line: inactive

Input line: Hello, I am checking results. What call was entered for NC(CSC(c1ccccc1)(c1ccccc1)c1ccc(Cl)cc1)C(=O)O (stereo not drawn) ?
Output line: active

Input line: Each compound tested received a call. Report the one for `Cc1cc2cc3cc(C)c(N(C)C)cc3nc2cc1N(C)C` .
Output line: inactive

Input line: Please state the recorded outcome for this compound: CS(=O)CCCCCN=C=S (stereo not drawn)
Output line: inactive

Input line: Lab log entry: `C(=C\c1n(Cc2ccc3ccccc3c2)c(-c2ccccc2)c(-c2ccccc2)[n+]1Cc1ccc2ccccc2c1)/c1ccccc1` — outcome as called in the assay?
Output line: active

---

Tested on: LOX IMVI melanoma
Experiment: NCI tumour cell line growth inhibition, 48 h
Items are presented alongside their recorded TGI.
Express your answer in µM, writing the number without its unit.

Example entries and their recorded answers appear below.
compound | TGI (µM)
COc1ccccc1-n1c(-c2cc(O)ccc2C)cn2c3c(=O)[nH]c(=O)n(C)c3nc12 | 16
CS(=O)CCCCCN=C=S (stereo not given) | 10.3

Input line: Fill in: TGI of `CC(C)[C@@]12C[C@@H](OC(=O)[C@H]3CO3)[C@@](C)(O1)[C@@H]1CC[C@@H](C)[C@H]1[C@@H]2OC(=O)/C=C/c1ccccc1` is ___
Output line: 46.3

Input line: Field request: TGI | item: `O=[N+]([O-])c1cccc2nc3ccccc3c(NCCc3cccc[n+]3[O-])c12`
Output line: 0.121

---

Tested on: IGROV1 ovarian
Experiment: NCI tumour cell line growth inhibition, 48 h
measurement.type: TGI (µM)
Enter your answer as a number in µM; do not include the unit.

molecule | target | TGI, µM
O=C(O)C1C(C(=O)Nc2ccc3c(c2)Cc2ccccc2-3)C2(Cl)C(Cl)=C(Cl)C1(Cl)C2(Cl)Cl (centres undefined) | IGROV1 ovarian | 44.4

Input line: Fill in: TGI of `NC(N)=NS(=O)(=O)c1ccc(NCc2c3ccccc3nc3ccccc23)cc1` is ___
Output line: 65

Input line: Would you mind telling me what TGI value was observed for `O=C1C(Br)=CC2(C=C1Br)CCN=c1c2c(O)c2nc3ccccc3c3ccnc1c23` ?
Output line: 7.22

Input line: So what does the record say about TGI for `OCCCN=NNc1ccc(-c2nc3ccccc3[nH]2)cc1` ?
Output line: 45.8

Input line: Query: TGI; subject: `COc1ccccc1-n1c(-c2cc(O)ccc2C)cn2c3c(=O)[nH]c(=O)n(C)c3nc12`
Output line: 13.9

---

System: HCC-2998 colon
Assay: NCI tumour cell line growth inhibition, 48 h
Where a SMILES comes first, the peptide text is derived from it. [ ]: non-standard residue; d: D form. The star is where a group is joined. AllylGly = C=CC[CH](N)C(=O)O; Boc = CC(C)(C)OC(=O)*; OtBu = CC(C)(C)O*
# TGI annotations

molecule | TGI
COc1ccc(C2=NNC(=O)OC2c2ccccc2)cc1 (stereo not drawn) | > 100 µM
C=CCC(NC(=O)C(CC(=O)OC(C)(C)C)NC(=O)OC(C)(C)C)C(=O)OC (stereo not drawn) (Boc-Asp(OtBu)-[AllylGly]-OMe; configuration not given here) | 61.3 µM
COc1ccc(C(=O)c2ccc(OC)c(OC)c2OC)cc1 | > 100 µM

Input line: Which TGI is listed for `N#Cc1c(-c2ccc([N+](=O)[O-])cc2)cc(-c2ccc(Nc3ccnc4cc(C(F)(F)F)ccc34)cc2)nc1N` ?
Output line: > 55.4 µM

Input line: Request the reported TGI associated with `N#Cc1c(-c2ccc(Cl)cc2)n(O)c2ccccc12`
Output line: 8.01 µM

Input line: Give the measured TGI of CC(N)C(C)Cc1ccccc1 (stereo not drawn) .
Output line: > 100 µM

Input line: Entry `Cc1ccc(S(=O)(=O)NN=C2CCCCCCCCCCC2)cc1` has what TGI?
Output line: > 100 µM

---

GI50 values by entry
Test system: UACC-62 melanoma
Test: NCI tumour cell line growth inhibition, 48 h

The cases that follow already have their GI50 on record.
smiles.input | assay.result
OCCCN=NNc1ccc(-c2nc3ccccc3[nH]2)cc1 | 17.6 µM
CCC[CH2][Sn]([CH2]CCC)([O]C(=O)c1cc(F)cc(F)c1)[O]C(=O)c1cc(F)cc(F)c1 | 1.11 µM
COc1cc(NCCCCN=C(N)NC(N)=NC(C)C)c2ncccc2c1 | 10.3 µM

Input line: I am curious: what GI50 value has been reported for `COc1ccc(Nn2c(SCC(=O)Nc3nc(-c4ccc(Cl)cc4)cs3)nc(C)c2C)cc1` ?
Output line: 3.62 µM

---

System: COLO 205 colon
Assay: NCI tumour cell line growth inhibition, 48 h
measurement.type: TGI

molecule | measurement.type | assay.result
Cn1c2c(c3ccccc31)C1CCCCC1C1C(=O)NC(=O)C21 (stereo unspecified) | TGI | > 100 µM
COc1ccc(/C(=N/NC(=O)NN)C(c2ccc(OC)cc2)C2(O)CNc3c(Cl)cc(Cl)cc32)cc1 (stereo unspecified) | TGI | > 100 µM
Clc1ccc(Oc2ccc(N=Cc3ccc(Cl)cc3Cl)cc2Cl)cc1 | TGI | > 100 µM
O=C1C(Br)=CC2(C=C1Br)CCN=c1c2c(O)c2nc3ccccc3c3ccnc1c23 | TGI | 3.03 µM
O=C(CC1(O)C(=O)Nc2ccccc21)c1ccccc1Cl (stereo unspecified) | TGI | > 100 µM
O=P(Oc1ccccc1)(Oc1ccccc1)Oc1c[nH]c2ccccc12 | TGI | 13.9 µM
CN(NC(=O)CCCl)C1=NCCN1 | TGI | > 100 µM
CC(=O)OCC1OC(n2c3c(c(-c4ccco4)c(C#N)c2=S)CCC3)C(OC(C)=O)C(OC(C)=O)C1OC(C)=O (stereo unspecified) | TGI | > 100 µM

Input line: For the molecule `CC(=O)O/N=C/c1ncccc1OC(C)=O` , what TGI is on record?
Output line: > 100 µM

Input line: Query: TGI; subject: `CC(=O)N1CC(Nc2ccc(OC(F)(F)F)cc2)=CC1=O`
Output line: 4.69 µM

Input line: Which TGI value belongs to `C[C@]12CC[C@@H]3c4cc(OCC(F)(F)F)c(O)cc4C(=O)C[C@H]3[C@@H]1CC[C@@H]2O` ?
Output line: > 84.5 µM

---

Test system: SK-MEL-5 melanoma
Assay: NCI tumour cell line growth inhibition, 48 h
measurement.type: GI50

smiles.input | GI50
CCC[CH2][Sn]([CH2]CCC)([O]C(=O)c1cc(F)cc(F)c1)[O]C(=O)c1cc(F)cc(F)c1 | 1340 nM

Input line: // query GI50 value for entry `CCCCCCCCCCCCCCCCCC1=NCCN1CS(=O)(=O)O`
Output line: 18800 nM

Input line: Which GI50 is listed for `CC(=O)N1CC(Nc2ccc(OC(F)(F)F)cc2)=CC1=O` ?
Output line: 377 nM

Input line: Need GI50, item `CCCCCCCC/C=C/CCCCCCCC1=NCC[N+]1(CCO)CCO`
Output line: 2240 nM

Input line: Entry `NC(=NCCCOc1ccc(Cl)cc1)Nc1ccc(Cl)cc1` : reported GI50 = ?
Output line: 1740 nM

Input line: Field request: GI50 | item: `COc1ccc(C(=O)c2ccc(OC)c(OC)c2OC)cc1`
Output line: 1680 nM
